Measured Percent Effect of individual entries
- System: Wolbachia pipientis
- assay details: Anti-Wolbachia Cell-Based Screen
- Assay type: functional
- Set-up: scale not given: in the data most compounds retested in dose-response had high values
- condition details: 5 µM
Among all 48,000 compounds or so, about 13,000 (27%) showed an effect of 50% or more. The list shows a part of the results.
Could you give me the number in %? Just the number is fine.

These recorded examples may help you get a feel for the data.
1) CC(C)CC1(C(=O)NCc2nncn2C2CC2)CCC1: -7.53
2) CC(CNC(=O)c1ccccc1Oc1cccnc1)N(C)C (centres undefined): 3.869
3) CC(NC(=O)N(C)C1CC1)c1ccc(Oc2cccnc2)c(F)c1 (centres undefined): 100.6

Turning now to a further compound:
Look up and state reported Percent Effect for COCC(=O)N1CCCC(COc2ccccc2C)C1 (centres undefined) -17.48

###

- Test system: Wolbachia pipientis
- assay details: Anti-Wolbachia Cell-Based Screen
- Assay type: functional
- Design: scale not given: in the data most compounds retested in dose-response had high values
- condition details: 5 µM
Hit rate of the full screen: of about 48,000 compounds, about 13,000 (27%) showed an effect of 50% or more. The list shows a part of the results.
Measured Percent Effect of individual entries
Could you give me the number in %? Just the number is fine.

These recorded examples may help you get a feel for the data.
1) CC(=O)NCC(=O)N1CCC2(CC1)NC(=O)CC2c1cccnc1.O=C(O)C(F)(F)F (configuration not stated): 7.13
2) Cc1cncc(C(=O)N2CCO[C@H]3[C@H](OCCN(C)C)CC[C@@H]32)c1.O=C(O)C(F)(F)F.O=C(O)C(F)(F)F: 111.8
3) CCCNC(=O)c1cccc2ncccc12: 14.09

Look up and state reported Percent Effect for CS(=O)(=O)N1CC2(CCCN(CC3CC3)C2)Cc2ccccc21 (configuration not stated) 118.5

Look up and state reported Percent Effect for `Cc1nc([C@@H]2C[C@@H]3CCN(Cc4cnn(C)c4)C[C@H]3O2)sc1C` -0.8686

Look up and state reported Percent Effect for COc1cccc(CN(C)C(C)c2nccs2)c1OCCn1ccnc1 (configuration not stated) -3.505

Look up and state reported Percent Effect for `Cc1nc(CN(C)C(=O)Nc2cccc(COC(C)C)c2C)no1` -7.168

Look up and state reported Percent Effect for COCC(=O)N1CCC2(CC1)CC(c1cnn(C)c1)C(=O)N2 (configuration not stated) 4.267

Look up and state reported Percent Effect for `COC(=O)[C@@H]1Cc2ncn(C)c2CN1S(=O)(=O)c1ccc(Cl)cc1` -5.674

Look up and state reported Percent Effect for `Cc1ccc([C@@H]2CN(C(=O)c3csc(C)n3)C[C@H]2NC(=O)C2CC2)cc1` -2.75

Look up and state reported Percent Effect for O=C(O)C(F)(F)F.O=C1CC(c2ccncc2)C2(CCN(C(=O)NC3CC3)CC2)N1 (configuration not stated) -11.64

Look up and state reported Percent Effect for `Cc1nc(CN(C)C(=O)Nc2cccc(C)c2C)no1` 98.94

Look up and state reported Percent Effect for N#Cc1cccc(N2CCCC(CO)(CCOc3ccccc3)C2)n1 (configuration not stated) -9.375

###

- Test system: Wolbachia pipientis
- assay details: Anti-Wolbachia Cell-Based Screen
- Assay type: functional
- Set-up: scale not given: in the data most compounds retested in dose-response had high values
- condition details: 5 µM
About 13,000 (27%) of roughly 48,000 compounds showed an effect of 50% or more. This is one part of the list.
Please mark Met if the recorded Percent Effect is equal to or greater than 70%, and Not met if it falls below.

Past entries and their recorded results:
1. CC(CNC(=O)c1c[nH]nn1)Oc1ccccc1Br (centres undefined): Not met
2. CC(C)Oc1ccccc1CNC(=O)c1[nH]ncc1Br: Not met
3. CC(CNS(N)(=O)=O)Oc1ccc(Cl)cc1 (centres undefined): Not met
4. Cc1occc1C(=O)N1CCC[C@]2(C[C@@H](OCc3ccncc3)CO2)C1.O=C(O)C(F)(F)F: Not met
5. CC(NC(=O)Nc1ccc(S(C)(=O)=O)cc1)c1ccc2c(c1)CC(=O)N2 (centres undefined): Not met

Please check the record `CN(Cc1ccco1)Cc1ccccc1CNC(=O)c1cnc[nH]1` and state if its Percent Effect is at or above 70%. Not met

Please check the record `O=C(O)C(F)(F)F.c1cnc(N2C[C@H]3CCN(CC4CC4)C[C@H]3C2)cn1` and state if its Percent Effect is at or above 70%. Met

Please check the record `CC(C)NC(=O)N1CC[C@H]2N(C)CC[C@@]2(C(=O)Nc2cccnc2)CC1` and state if its Percent Effect is at or above 70%. Met

Please check the record O=C1CC(C(=O)Nc2nnc(-c3cccs3)[nH]2)c2ccccc2N1 (centres undefined) and state if its Percent Effect is at or above 70%. Not met

Please check the record CCOCC(O)CN1CCN(C(=O)c2cccc(OC)c2)CC1 (centres undefined) and state if its Percent Effect is at or above 70%. Met

Please check the record `O=C(O)C(F)(F)F.c1csc(CN2CCO[C@H]3[C@H](OCC4CCCC4)CC[C@@H]32)n1` and state if its Percent Effect is at or above 70%. Not met

Please check the record CC(C)(C)c1oc(C(N)=O)cc1CN1CCCCC1CN1CCOCC1 (centres undefined) and state if its Percent Effect is at or above 70%. Not met

Please check the record `CC(C)NC(=O)[C@H]1C[C@@H]2[C@@H](C1)OCCN2Cc1ccco1.O=C(O)C(F)(F)F` and state if its Percent Effect is at or above 70%. Not met

Please check the record `O=C(Nc1cccnc1)Nc1ccn(CC(F)F)n1` and state if its Percent Effect is at or above 70%. Not met
